Measured values drawn from patent US20230257454A1 for this set.

- target.or.test.system: T1, human C5a (source not stated) (human, UniProt P01031 678-751)
- T1 sequence: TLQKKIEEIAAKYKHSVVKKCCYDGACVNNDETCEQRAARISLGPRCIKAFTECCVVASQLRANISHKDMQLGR
- test: cell-based or functional assay
value.type: ROS IC50 (nM)
Answers are plain numbers, in nM.

[[record]]
binder = "Cab14 scFv (scFv, V domains shown) VH: VVQLVESGGGLVQPGGSLKVSCATSGFTFSDYYMQWVRQAPGKGPEWLGLIRNKAIGGTTQYAASVKGRFTISRDDSKGIAYLQMSSLKTEDTAVYYCVCRAGPPGLSWGQGVLVTVSS VL: DIELTQTPLSRPVTPGEPASISCRSSQSLLHTDGYTYLDWYLQKPGQSPQLLIYGGSNRASGVPDRFSGSGSGTDFTLKISKVEAEDVGVYYCMQHKALPLTFGGGTKLEIK"
test_value = 1.2

[[record]]
binder = "Cab18 scFv (scFv, V domains shown) VH: VVQLVESGGGLVQPGGSLKVSCAASGFTFSDYYMQWVRQAPGKGPEWVGLIRNKAIGETTQYAASVKGRFTISRDDSKSIVYLQMSSLKTEDTAVYYCVSRAGPPGLSWGQGVLVTVSS VL: DIVMTQNPLSLPVTPGEPASISCRSSQSLLDSNRYAYVDWYLQKPGQSPQILVYGGSNRASGVPDRFSGSGSGTDFTLKISKVEAEDVGIYYCMQHKVLPPTFGQGTKLEIK"
test_value = 1.36

[[record]]
binder = "Cab39 (reformatted as human IgG1) (antibody, V domains shown) VH: EMQLVESGGGLVQPGGSLRLSCAASGFTFSDYYMQWVRQAPGKGPEWVGLIRNKAVGITTQYAASVKGRFTISRDDSKNSVYLQMNSLKTEDTAVYYCVSRAGPPGLSWGQGVLVTVSS VL: DIVMTQSPLSLPVTPGEPASISCRSSQSLLASDGYNYIDWYLQKPGQSPQLLIYGGSNRASGVPDRFSGSGSGTDFTLKISRVEAEDVGVYFCLQHRALPPTFGQGTKLEIK"
test_value = 0.91

[[record]]
binder = "Cab30 scFv (scFv, V domains shown) VH: DMQLVESGGGLVQPGGSLKVSCAASGFTFSDYYMQWVRQAPGKGPEWVGLIRNKAVGGTTQYAASVKGRFTISRDDSKSIVYLEMSSLKTEDTAVYYCVSRAGPPGLSWGQGVLVTVSS VL: DIVMTQTPLSLPVTPGEPASISCRSSQSLLHSDGYTYLDWYLQRPGQSPHLLIYGGSNRASGVPDRFSGSGSGTDFTLKISKVEAEDVGVYYCMQHKVLPPTFGQGTKLEIK"
test_value = 1.18


Lab note: next binder to report on.
Prompt: Any idea what ROS IC50 was measured for Cab10 scFv (scFv, V domains shown) VH: QVQLVESGGGLVQPGGSLKVSCAASGFIFSDYYMQWVRQAPGKGPEWVGLIRKKVNGGTTEYAASVKGRFTISRDDSKSIVYLQMSSLKIEDTAVYYCVSRAGPPGLTWGQGVLITVSS VL: DTVMSQIPLSLPVTPGEPASISCRSSQSLLHTDGYIYLDWYLQKPGQSPQLLIYGGSNRASGVPDRFSGSGSGTDFTLKISKVEAEDVGVYYCMQHKALPLTFGGGTKLEIK ?
Response: 2.02
